Give measured inhibition for each item. Keep answers brief.
Target: Ephrin type-B receptor 3 (Homo sapiens);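 further: reported value is the mean percent inhibition of EPHB3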
Conditions: at 0.1 µM
Give bare numbers, in %.

Examples with their reported inhibition follow.
For the compound NS(=O)(=O)c1ccc(-c2ccc3c(NC(=O)C4CC4)n[nH]c3c2)cc1 , the measured inhibition on Ephrin type-B receptor 3 (Homo sapiens) was 4.28

For the compound CCn1c(-c2nonc2N)nc2c(C#CCN)ncc(OCCCN)c21 , the measured inhibition on Ephrin type-B receptor 3 (Homo sapiens) was -7.45

For the compound NC(=O)c1sc(-n2cnc3cc(C(F)(F)F)ccc32)cc1OCc1ccccc1Br , the measured inhibition on Ephrin type-B receptor 3 (Homo sapiens) was 1.68

Would you be so kind as to report inhibition for each listed record?
1. COc1cc(C=NNc2ncnc3c2cnn3Cc2ccccc2)ccc1O
2. Fc1ccc(-c2ncn(C3CCNCC3)c2-c2ccnc(Oc3ccccc3)n2)cc1
3. CCn1c(-c2nonc2N)nc2c(C#CC(C)(C)O)nc(O[C@@H](CN)c3ccccc3)cc21
4. COc1cccc(-n2ncc3c(N/N=C/c4ccncc4)ncnc32)c1

## Output
[-7.53, -0.53, 1.57, 4.72]
